Target: human TGR5 (h-TGR5) (Homo sapiens)
Construct: expressed in transfected cells
Sequence (Q8TDU6 1-330): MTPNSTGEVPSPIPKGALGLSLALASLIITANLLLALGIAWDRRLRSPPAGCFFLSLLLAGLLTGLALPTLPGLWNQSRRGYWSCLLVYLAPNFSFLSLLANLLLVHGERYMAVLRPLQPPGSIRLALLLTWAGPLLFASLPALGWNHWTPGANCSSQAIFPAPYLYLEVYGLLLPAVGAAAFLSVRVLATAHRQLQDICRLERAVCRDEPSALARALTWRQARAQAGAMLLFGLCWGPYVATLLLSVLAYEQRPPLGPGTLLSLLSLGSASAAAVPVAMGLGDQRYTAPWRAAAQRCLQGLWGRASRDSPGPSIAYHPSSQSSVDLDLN
Test: TGR5/CRE-Luciferiase Assay (HEK 293 hTGR5/CRE-Luc cells)
Assay type: cell-based
Conditions: h-TGR5 CRE-Luc EC50, Table 1; read-out: CRE-Luc (EC50)
experimental-readout: EC50

Known results for molecules:
{"molecule": "CC(C)(c1ccc(Cl)c(Cl)c1)c1cnc(SCc2cc(C(N)=O)ccc2Cl)n1-c1ccc(F)cc1", "measurement-target": "human TGR5 (h-TGR5) (Homo sapiens)", "experimental-readout": "EC50", "readout-value": "100 to 1000 nM"}
{"molecule": "CC(c1ncc(C(C)(C)c2ccc(Cl)c(Cl)c2)n1-c1ccc(F)cc1)S(=O)(=O)c1ccc(F)cc1Cl (stereo not shown)", "measurement-target": "human TGR5 (h-TGR5) (Homo sapiens)", "experimental-readout": "EC50", "readout-value": "1000 to 10000 nM"}
{"molecule": "CC(C)(c1ccc(Cl)c(Cl)c1)c1cnc(COc2c(F)cc(C(=O)O)cc2Cl)n1-c1ccc(F)cc1", "measurement-target": "human TGR5 (h-TGR5) (Homo sapiens)", "experimental-readout": "EC50", "readout-value": "100 to 1000 nM"}

Moving on to another molecule below.
What value of measured EC50 is listed for CC(C)(c1ccc(Cl)c(Cl)c1)c1cnc(SCc2ccc(S(=O)(=O)NC(=O)NN3CCCC3)cc2Cl)n1-c1ccc(F)cc1 ? 100 to 1000 nM

###

biological target: human TGR5 (h-TGR5) (Homo sapiens, UniProt Q8TDU6); construct: expressed in transfected cells; assay: TGR5/CRE-Luciferiase Assay (HEK 293 hTGR5/CRE-Luc cells); format: cell-based; conditions: h-TGR5 CRE-Luc EC50, Table 1; read-out: CRE-Luc (EC50)
experimental-readout: EC50

{"compound": "CC(C)(C)OC(=O)N1CCC(NCc2ncc(C(C)(C)c3ccc(Cl)c(Cl)c3)n2-c2ccc(F)cc2)CC1", "readout-value": "1000 to 10000 nM"}

What measured EC50 goes with CC(C)(c1ccc(Cl)c(Cl)c1)c1cnc(SCc2c(F)cc(C(=O)O)cc2F)n1-c1ccc(F)c(C(F)F)c1 ? < 100 nM

Give its EC50 value. Item: COc1c(Cl)cc(C(C)(C)c2cnc(SCc3ccc(S(N)(=O)=O)cc3F)n2-c2ccc(F)cc2)cc1Cl < 100 nM

If you can, please state the reported EC50 value of CCOC(=O)NS(=O)(=O)c1ccc(CSc2ncc(C(C)(C)c3ccc(Cl)c(OC)c3)n2-c2ccc(F)cc2)cc1F . < 100 nM

Just for reference, patent US8785488B2 is where these values come from.
